In this section we review reported IC95 values for a set of compounds.
- Test system: Human immunodeficiency virus 1
- Assay Details: Inhibition of viral spread in MT-4 human lymphoid cells infected with the HIV-IIIb isolate
- Assay type: functional
- Run Parameters: Human immunodeficiency virus 1, lymphoid; read-out: CIC95
Readout Label: IC95 (nM)

{"Smiles Text": "Cc1ccc(CN2CCN(C[C@@H](O)[C@H](Cc3ccccc3)NC(=O)O[C@@H]3CCS(=O)(=O)[C@@H]3C(C)C)[C@H](C(=O)NC(C)(C)C)C2)cn1", "System Tested": "Human immunodeficiency virus 1", "Readout Label": "IC95", "Meas Value": 100}
{"Smiles Text": "Cc1cc(C)cc(CN2CCN(C[C@@H](O)[C@H](Cc3ccccc3)NC(=O)O[C@@H]3CCS(=O)(=O)[C@@H]3C(C)C)[C@H](C(=O)NC(C)(C)C)C2)c1", "System Tested": "Human immunodeficiency virus 1", "Readout Label": "IC95", "Meas Value": 100}
{"Smiles Text": "CC(C)(C)NC(=O)[C@@H]1CN(Cc2cccc(O)c2)CCN1C[C@@H](O)[C@H](Cc1ccccc1)NC(=O)O[C@H]1CCOC1", "System Tested": "Human immunodeficiency virus 1", "Readout Label": "IC95", "Meas Value": 400}
{"Smiles Text": "CC(C)[C@@H]1[C@H](OC(=O)N[C@@H](Cc2ccccc2)[C@H](O)CN2CCN(Cc3ccncc3)C[C@H]2C(=O)NC(C)(C)C)CCS1(=O)=O", "System Tested": "Human immunodeficiency virus 1", "Readout Label": "IC95", "Meas Value": 200}
{"Smiles Text": "CC(C)(C)NC(=O)[C@@H]1CN(Cc2ccncc2)CCN1C[C@@H](O)[C@H](Cc1ccccc1)NC(=O)O[C@H]1CCOC1", "System Tested": "Human immunodeficiency virus 1", "Readout Label": "IC95", "Meas Value": 1500}
{"Smiles Text": "CC(C)[C@@H]1[C@H](OC(=O)N[C@@H](Cc2ccccc2)[C@H](O)CN2CCN(Cc3ccc4ccccc4c3)C[C@H]2C(=O)NC(C)(C)C)CCS1(=O)=O", "System Tested": "Human immunodeficiency virus 1", "Readout Label": "IC95", "Meas Value": 50}
{"Smiles Text": "Cc1cc(CN2CCN(C[C@@H](O)[C@H](Cc3ccccc3)NC(=O)O[C@@H]3CCS(=O)(=O)[C@@H]3C(C)C)[C@H](C(=O)NC(C)(C)C)C2)cc(Cl)n1", "System Tested": "Human immunodeficiency virus 1", "Readout Label": "IC95", "Meas Value": 50}
{"Smiles Text": "CC(C)[C@@H]1[C@H](OC(=O)N[C@@H](Cc2ccccc2)[C@H](O)CN2CCN(Cc3cccc(O)c3)C[C@H]2C(=O)NC(C)(C)C)CCS1(=O)=O", "System Tested": "Human immunodeficiency virus 1", "Readout Label": "IC95", "Meas Value": 100}
{"Smiles Text": "CC(C)(C)NC(=O)[C@@H]1CN(Cc2cccnc2)CCN1C[C@@H](O)[C@H](Cc1ccccc1)NC(=O)O[C@H]1CCOC1", "System Tested": "Human immunodeficiency virus 1", "Readout Label": "IC95", "Meas Value": 1500}
{"Smiles Text": "CC(C)[C@@H]1[C@H](OC(=O)N[C@@H](Cc2ccccc2)[C@H](O)CN2CCN(Cc3cc(Cl)cc(Cl)c3)C[C@H]2C(=O)NC(C)(C)C)CCS1(=O)=O", "System Tested": "Human immunodeficiency virus 1", "Readout Label": "IC95", "Meas Value": 100}

Provenance of the data: ChEMBL document CHEMBL1127978
